I'd be grateful if you could share measured t1/2 Human plasma for these entries.
A number alone suffices; assume min.

Task: Look up and report measured t1/2 Human plasma for this entry: CC[C@H](C)[C@H](N)C(=O)OC[C@H]1O[C@@H](n2ccc(N)nc2=O)C(F)(F)[C@@H]1O [5′-O-L-isoleucyl gemcitabine]
Result: 99.2

Task: Look up and report measured t1/2 Human plasma for this entry: CC(C)[C@H](N)C(=O)OC[C@H]1O[C@@H](n2ccc(N)nc2=O)C(F)(F)[C@@H]1OC(=O)[C@@H](N)C(C)C [3′,5′-di-O-L-valyl Gemcitabine]
Result: 2.0

Task: Look up and report measured t1/2 Human plasma for this entry: CC[C@H](C)[C@H](N)C(=O)O[C@@H]1[C@@H](CO)O[C@@H](n2ccc(N)nc2=O)C1(F)F [3′-O-L-isoleucyl gemcitabine]
Result: 8.0

----------
- Measurement notes: physchem
- Condition notes: buffer, pH 7.4
Reported property: half-life (h)
A number alone suffices; assume h.

Task: Look up and report measured half-life for this entry: CC(C)[C@H](N)C(=O)OCC(CO)OCn1cnc2c(=O)nc(N)[nH]c21 (stereo partly shown)
Result: 16.5

----------
- Condition notes: Caco-2 cell homogenates, n = 3
Reported property: t1/2 Caco-2 (min)
A number alone suffices; assume min.

Task: Look up and report measured t1/2 Caco-2 for this entry: `CC(C)[C@H](N)C(=O)OC[C@H]1O[C@@H](n2cnc3c(N)ncnc32)[C@@H](O)[C@@H]1O`
Result: 11.1

Task: Look up and report measured t1/2 Caco-2 for this entry: `Nc1ncnc2c1ncn2[C@@H]1O[C@H](COC(=O)[C@@H](N)Cc2ccccc2)[C@@H](O)[C@@H]1O`
Result: 3.5

Task: Look up and report measured t1/2 Caco-2 for this entry: `Nc1ncnc2c1ncn2[C@@H]1O[C@H](COC(=O)[C@@H]2CCCN2)[C@@H](O)[C@@H]1O`
Result: 1.3

Task: Look up and report measured t1/2 Caco-2 for this entry: `CC[C@H](C)[C@H](N)C(=O)OC[C@H]1O[C@@H](n2cnc3c(N)ncnc32)[C@@H](O)[C@@H]1O`
Result: 27.0

----------
- Test system: KB cell
Reported property: IC50 (µM)
A number alone suffices; assume µM.

Task: Look up and report measured IC50 for this entry: `Nc1ncnc2c1ncn2[C@@H]1O[C@H](COC(=O)[C@@H]2CCCN2)[C@@H](O)[C@@H]1O`
Result: 45

----------
- Study system: HPEPT1 (Homo sapiens, UniProt P46059)
- Sequence (P46059 whole entry): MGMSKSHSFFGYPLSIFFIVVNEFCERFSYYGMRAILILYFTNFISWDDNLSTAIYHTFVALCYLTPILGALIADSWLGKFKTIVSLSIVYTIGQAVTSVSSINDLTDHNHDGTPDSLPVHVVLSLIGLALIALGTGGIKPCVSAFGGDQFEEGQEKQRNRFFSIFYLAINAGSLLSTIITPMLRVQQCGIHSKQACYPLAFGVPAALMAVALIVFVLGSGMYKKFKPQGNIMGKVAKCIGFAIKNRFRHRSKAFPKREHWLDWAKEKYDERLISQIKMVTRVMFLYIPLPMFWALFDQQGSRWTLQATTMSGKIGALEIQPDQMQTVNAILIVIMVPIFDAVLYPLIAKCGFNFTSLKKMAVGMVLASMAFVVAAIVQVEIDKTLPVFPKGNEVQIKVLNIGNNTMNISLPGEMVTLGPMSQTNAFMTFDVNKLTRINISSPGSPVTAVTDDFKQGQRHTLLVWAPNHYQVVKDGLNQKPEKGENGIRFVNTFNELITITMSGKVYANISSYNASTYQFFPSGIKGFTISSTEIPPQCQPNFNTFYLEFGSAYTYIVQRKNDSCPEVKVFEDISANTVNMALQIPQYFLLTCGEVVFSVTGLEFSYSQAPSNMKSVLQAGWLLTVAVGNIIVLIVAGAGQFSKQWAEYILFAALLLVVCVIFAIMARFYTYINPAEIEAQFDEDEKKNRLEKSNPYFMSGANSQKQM
- Measurement notes: Inhibition of radiolabelled Gly-Sar uptake in DC5 cells overexpressing HPEPT1
- Assay type: cell-based
- Design: expressed in transfected cells; host or cells: HeLa cells overexpressing hPEPT1 (called 'HPEPT1 infected cells')
- Condition notes: inhibition of Gly-Sar uptake, DC5 cells overexpressing HPEPT1, 10 min, 37° C.; read-out: DC5 IC50
I'd be grateful if you could share measured IC50 for these entries.
A number alone suffices; assume mM.

Task: Look up and report measured IC50 for this entry: `CC(C)[C@H](N)C(=O)OC[C@H]1O[C@@H](n2ccc(N)nc2=O)C(F)(F)[C@@H]1O`
Result: 0.7

Task: Look up and report measured IC50 for this entry: NC(CC(=O)O)C(=O)OC1CC(n2cc(F)c(=O)[nH]c2=O)OC1CO (stereo not shown)
Result: 10.5

Task: Look up and report measured IC50 for this entry: `N[C@@H](Cc1ccccc1)C(=O)OC[C@H]1O[C@@H](n2cc(F)c(=O)[nH]c2=O)C[C@@H]1OC(=O)[C@@H](N)Cc1ccccc1`
Result: 2.78

Task: Look up and report measured IC50 for this entry: NC(CC(=O)O)C(=O)OCC1OC(n2cc(F)c(=O)[nH]c2=O)CC1OC(=O)C(N)CC(=O)O (stereo not shown)
Result: 9.55
